- protocol.summary: Pharmacokinetics of Compound A in SJSA-1 tumor-bearing rat (plasma, tumor, tissues; UPLC/MS-MS)
- Format: in vivo, nude rat
- measurement.parameters: nude (Harlan), rat, iv; single i.v. injection 20 mg/kg; plasma
metric.name: Tmax (min)
Answer format: numeric, min implied, no suffix.

Could you share which Tmax value was measured for `COc1ncc(-c2nc3c(n2C(C)C)[C@H](c2ccc(Cl)cc2)N(c2cc(Cl)cn(C)c2=O)C3=O)c(OC)n1` ?
5

* * *

- protocol.summary: Pharmacokinetics of Compound A in SJSA-1 tumor-bearing rat (plasma, tumor, tissues; UPLC/MS-MS)
- Type: in vivo, nude rat
- measurement.parameters: nude (Harlan), rat, iv; single i.v. injection 20 mg/kg; liver
metric.name: Tmax
Just so you know, I need the unit written after the number.

Look up Tmax for this compound: `COc1ncc(-c2nc3c(n2C(C)C)[C@H](c2ccc(Cl)cc2)N(c2cc(Cl)cn(C)c2=O)C3=O)c(OC)n1`
5 min
